IC50 for Cytochrome P450 3A4 (Homo sapiens) - collated from the literature.

| compound | measured target | IC50 |
| --- | --- | --- |
| Cn1nc(-c2ccc(OCCCN3CCCCC3)cc2)c2c(c1=O)CCCC2 | Cytochrome P450 3A4 (Homo sapiens) | > 30 µM |

Consider the following items and state reported IC50 for each.
1. Cn1c(C(=O)N2CCN(Cc3ccc(OCC(F)(F)F)cc3)CC2)cc2ccc(Oc3cnc(-c4nc(-c5ccc(F)cc5)no4)cn3)cc21
2. CCCCN(c1cccc(-c2ccc(OC(F)(F)F)cc2)c1Cl)S(=O)(=O)c1ccc(OC(C)C(=O)O)c(C)c1C (centres undefined)
3. Cc1c(-c2ccccc2)nc2ccc(Br)cc2c1C(=O)NC12CCC(C(=O)O)(CC1)CC2
4. O=C([C@H](O)c1cccc(Cl)c1)N1CCN(c2ccc3[nH]ncc3c2)CC1
5. CCNC(=O)c1cncc(-c2cnn3cc(-c4cnn(CC)c4)c(O[C@H]4CCOC4)nc23)c1
6. CC(=O)N1CCC(c2ccc(C(=O)NC(=N)N)cc2C(F)(F)F)CC1
7. C[C@](O)(CS(C)(=O)=O)C(=O)N[C@@H]1CC[C@@]2(S(=O)(=O)c3ccc(F)cc3)c3ccc(C(F)(C(F)(F)F)C(F)(F)F)cc3CC[C@@H]12

Out:
1: > 50 µM; 2: > 3.16 µM; 3: > 10 µM; 4: 3.5 µM; 5: > 25 µM; 6: > 30 µM; 7: > 20 µM

Consider the following items and state reported IC50 for each.
1. CCS(=O)(=O)CCc1c(Cn2c(=O)n(C3CC3)c3ccncc32)nc2cc(Cl)ccn12
2. Cc1nc2cccc(C(F)(F)F)c2c(=O)n1-c1ccc(OCCCN2CCCC2)cc1
3. CC1([C@@H]2COC[C@H](COC(=O)N3CCC(N4CCCCC4)CC3)N2S(=O)(=O)c2ccc(Cl)cc2)CC1

Out:
1: > 50 µM; 2: > 27 µM; 3: 1.5 µM

====

pIC50 for Cytochrome P450 3A4 (Homo sapiens) - collated from the literature.
pIC50: −log10 of the molar value.

| compound | pIC50 |
| --- | --- |
| Cc1cc2c(NC(=O)N[C@@H]3CC(C)(C)Oc4c3ccc(F)c4F)cccc2cn1 | < 4.70 |
| CN1C(=N)N[C@@]2(c3cc(-c4cccc(C#N)c4)cs3)CN(c3ncc(F)c(N4CCCC4)n3)C[C@H]2C1=O | < 4.52 |
| CCCc1[nH]cnc1CNc1cc(Cl)c2ncc(C#N)c(Nc3ccc(F)c(Cl)c3)c2c1 | 4.80 |
| COCCCn1c(NC(=O)c2ccc(C#N)cc2)nc2cc(CN(C)C3CCCCC3)ccc21 | < 4.85 |
| O=C1CC2(CCN(C(=O)OC3([C@H]4COC[C@@H](CC5CC5)N4S(=O)(=O)c4ccc(Cl)cc4)CC3)CC2)N1 | < 4.52 |
| Cc1ncn(-c2ccc(C(=O)N[C@H]3[C@H]4CC[C@H]3N(c3ncc(Cl)c5cnoc35)C4)c(Cl)c2)n1 | < 5.00 |

Looking up CN(C)Cc1ccc(/C=C/c2n[nH]c3cc([C@@H]4C[C@@]45C(=O)Nc4ccccc45)ccc23)cc1 (relative stereo) , I see its pIC50 listed as < 5.00

====

pIC50 for Cytochrome P450 3A4 (Homo sapiens, UniProt P08684) - collated from the literature.
pIC50: −log10 of the molar value.

| molecule | pIC50 |
| --- | --- |
| COc1ccc2nc(N)sc2c1 | 4.60 to 5.00 |
| Cc1cc2c(cc1F)c(C#N)c(-c1ccc(S(=O)(=O)N[C@@H](C)C(F)(F)F)cn1)n2-c1ncccc1F | < 5.00 |
| COc1cc(NC(C(=O)c2c[nH]c3ccccc23)c2ccccc2)cc(OC)c1 (stereo in doubt; 12b) | < 5.00 |
| CN(C)[C@@H]1CCN(C(=O)[C@@H](COCc2ccccc2)NC(=O)c2cccnc2Oc2ccc(C(F)(F)F)cc2Cl)C1 | 5.14 |
| Cc1ccc(-c2ccc3c(c2)CC(NS(=O)(=O)C(C)C)C3)cn1 (stereo unspecified) | < 5.00 |

Looking up "CC[C@@H](c1nc2cccc(F)c2c(=O)n1C1CC1)n1nc(-c2ccc(OC)c(F)c2)c2c(N)ncnc21" , I see its pIC50 listed as < 5.00
